Tested on: Rats
Assay: Rat forced swim test
Assay type: in vivo
Settings: 3 mg/kg PO
Structures can show the parent of a compound that is named as a salt.
MEASUREMENT NAME: Rat Forced Swim Swimming (Means ± S.E.M.)

Query block: Sample CC(N(C)C)C1(c2ccc3ccccc3c2)CCCCC1 (single isomer, unassigned) [56 E1] — what was its Rat Forced Swim Swimming (Means ± S.E.M.)?
Result block: 0.3 ± 0.2

Query block: Sample CN(C)C[C@]1(c2ccc(Cl)c(Cl)c2)CCCC[C@H]1O (relative stereo) [153 E2] — what was its Rat Forced Swim Swimming (Means ± S.E.M.)?
Result block: 1.9 ± 0.8

Query block: Sample CN[C@H](C)C1(c2ccc(Cl)c(Cl)c2)CCCCC1 (stereo in doubt) [48 E1, hydrochloride] — what was its Rat Forced Swim Swimming (Means ± S.E.M.)?
Result block: 3.7 ± 1.0

Query block: Sample CNCC1(c2ccc3ccccc3c2)CCCCC1 — what was its Rat Forced Swim Swimming (Means ± S.E.M.)?
Result block: 6.5 ± 1.6

Query block: Sample CN(C)C[C@]1(c2ccc3ccccc3c2)CC[C@](C)(O)CC1 — what was its Rat Forced Swim Swimming (Means ± S.E.M.)?
Result block: 0.8 ± 0.3

====

Molecular target: DA Transporter (DAT) sites in mouse brain (Mus musculus (Mouse))
Test: Ex vivo [3H] WIN 35428 binding to DAT sites in mouse brain after oral dosing
Settings: mice, 10 mg/kg PO, 60 min after treatment
Counter-ions that a name gives are not always drawn.
Please note: T applies when DAT Mean Specific Binding ± S.E.M. is 20000 dpm or greater, and F applies otherwise.

Query block: hey, is DAT Mean Specific Binding ± S.E.M. for this one >= 20000 dpm? CNC(C)C1(c2ccc3ccccc3c2)CCCCC1 (single isomer, unassigned) [58 E1]
Result block: F

Query block: hey, is DAT Mean Specific Binding ± S.E.M. for this one >= 20000 dpm? CC(N(C)C)C1(c2ccc3ccccc3c2)CCCCC1 (single isomer, unassigned) [56 E1]
Result block: T

Query block: hey, is DAT Mean Specific Binding ± S.E.M. for this one >= 20000 dpm? CN(C)C[C@]1(c2ccc3ccccc3c2)CC[C@](C)(O)CC1 [Compound 225]
Result block: F

Query block: hey, is DAT Mean Specific Binding ± S.E.M. for this one >= 20000 dpm? CNCC1(c2ccc(Cl)c(Cl)c2)CCC(C)(O)CC1 (stereo not shown) [Compound 276]
Result block: F

Query block: hey, is DAT Mean Specific Binding ± S.E.M. for this one >= 20000 dpm? CN[C@H](C)C1(c2ccc(Cl)c(Cl)c2)CCCCC1 (stereo in doubt) [48 E1, hydrochloride]
Result block: F

Query block: hey, is DAT Mean Specific Binding ± S.E.M. for this one >= 20000 dpm? CN(C)CC1(c2ccc(Cl)c(Cl)c2)CCC(C)(O)CC1 (stereo not shown) [Compound 277]
Result block: T

Query block: hey, is DAT Mean Specific Binding ± S.E.M. for this one >= 20000 dpm? CN(C)C[C@]1(c2ccc3ccccc3c2)CCCC[C@H]1O (relative stereo) [164 E1]
Result block: F

====

Target: DA Transporter (DAT) sites in mouse brain (Mus musculus (Mouse), UniProt Q61327)
Test: Ex vivo [3H] WIN 35428 binding to DAT sites in mouse brain after oral dosing
Details: mouse; mice, 10 mg/kg PO, 60 min after treatment
Structures can show the parent of a compound that is named as a salt.
MEASUREMENT NAME: receptor occupancy at 10 mg/kg (%)
Number only, in %; omit the unit.

Query block: Sample CN(C)CC1(c2ccc(Cl)c(Cl)c2)CCC(C)(O)CC1 (stereo not shown) — what was its receptor occupancy at 10 mg/kg?
Result block: 23

Query block: Sample CNCC1(c2ccc(Cl)c(Cl)c2)CCC(C)(O)CC1 (stereo not shown) — what was its receptor occupancy at 10 mg/kg?
Result block: -6

Query block: Sample CN(C)C[C@]1(c2ccc(Cl)c(Cl)c2)CCCC[C@H]1O (relative stereo) [153 E2] — what was its receptor occupancy at 10 mg/kg?
Result block: -6

Query block: Sample CC(N(C)C)C1(c2ccc3ccccc3c2)CCCCC1 (single isomer, unassigned) [56 E1] — what was its receptor occupancy at 10 mg/kg?
Result block: 23

Query block: Sample CN(C)C[C@]1(c2ccc3ccccc3c2)CCCC[C@H]1O (relative stereo) [164 E1] — what was its receptor occupancy at 10 mg/kg?
Result block: 17

Query block: Sample CNC(C)C1(c2ccc3ccccc3c2)CCCCC1 (single isomer, unassigned) [58 E1] — what was its receptor occupancy at 10 mg/kg?
Result block: -2

Query block: Sample CN[C@H](C)C1(c2ccc(Cl)c(Cl)c2)CCCCC1 (stereo in doubt) [48 E1, hydrochloride] — what was its receptor occupancy at 10 mg/kg?
Result block: 52

====

Target: UniProtKB Q61327
Test: Ex vivo [3H] WIN 35428 binding to DAT sites in mouse brain after oral dosing
Settings: mice, 30 mg/kg PO, 60 min after treatment
Where a name gives a salt, the structure may show the parent alone.
MEASUREMENT NAME: DAT Mean Specific Binding ± S.E.M. (dpm)
Number only, in dpm; omit the unit.

Query block: Form field: DAT Mean Specific Binding ± S.E.M. recorded for CNCC1(c2ccc(Cl)c(Cl)c2)CCC(C)(O)CC1 (centres unmarked) [Compound 276] with UniProtKB Q61327 (enter value)
Result block: 10397

Query block: Form field: DAT Mean Specific Binding ± S.E.M. recorded for CC(N(C)C)C1(c2ccc3ccccc3c2)CCCCC1 (single isomer, unassigned) [56 E1] with UniProtKB Q61327 (enter value)
Result block: 14637

Query block: Form field: DAT Mean Specific Binding ± S.E.M. recorded for CN(C)C[C@]1(c2ccc3ccccc3c2)CCCC[C@H]1O (relative stereo) [164 E1] with UniProtKB Q61327 (enter value)
Result block: 15630

Query block: Form field: DAT Mean Specific Binding ± S.E.M. recorded for CNC(C)C1(c2ccc3ccccc3c2)CCCCC1 (single isomer, unassigned) [58 E1] with UniProtKB Q61327 (enter value)
Result block: 12876

Query block: Form field: DAT Mean Specific Binding ± S.E.M. recorded for CN[C@H](C)C1(c2ccc(Cl)c(Cl)c2)CCCCC1 (stereo in doubt) [48 E1, hydrochloride] with UniProtKB Q61327 (enter value)
Result block: 3173

Query block: Form field: DAT Mean Specific Binding ± S.E.M. recorded for CN(C)CC1(c2ccc(Cl)c(Cl)c2)CCC(C)(O)CC1 (centres unmarked) [Compound 277] with UniProtKB Q61327 (enter value)
Result block: 31743

Query block: Form field: DAT Mean Specific Binding ± S.E.M. recorded for CN(C)C[C@]1(c2ccc3ccccc3c2)CC[C@](C)(O)CC1 [Compound 225] with UniProtKB Q61327 (enter value)
Result block: 14618

Query block: Form field: DAT Mean Specific Binding ± S.E.M. recorded for CN(C)C[C@]1(c2ccc(Cl)c(Cl)c2)CCCC[C@H]1O (relative stereo) [153 E2] with UniProtKB Q61327 (enter value)
Result block: 16194

====

Target: UniProtKB Q60857
Experiment: Ex vivo [3H] citalopram binding to SERT sites in mouse brain after oral dosing
Conditions: mouse; mice, 10 mg/kg PO, 60 min after treatment
Please note: criterion met applies when receptor occupancy at 10 mg/kg is 30% or greater, and criterion not met applies otherwise.

Query block: hey, is receptor occupancy at 10 mg/kg for this one >= 30%? CN(C)C[C@]1(c2ccc3ccccc3c2)CCCC[C@H]1O (relative stereo) [164 E1]
Result block: criterion met

Query block: hey, is receptor occupancy at 10 mg/kg for this one >= 30%? CN(C)C[C@]1(c2ccc(Cl)c(Cl)c2)CCCC[C@H]1O (relative stereo) [153 E2]
Result block: criterion not met

Query block: hey, is receptor occupancy at 10 mg/kg for this one >= 30%? CNCC1(c2ccc(Cl)c(Cl)c2)CCC(C)(O)CC1 (stereo not drawn) [Compound 276]
Result block: criterion not met

Query block: hey, is receptor occupancy at 10 mg/kg for this one >= 30%? CN(C)CC1(c2ccc(Cl)c(Cl)c2)CCC(C)(O)CC1 (stereo not drawn) [Compound 277]
Result block: criterion not met

Query block: hey, is receptor occupancy at 10 mg/kg for this one >= 30%? CNC(C)C1(c2ccc3ccccc3c2)CCCCC1 (single isomer, unassigned) [58 E1]
Result block: criterion met

Query block: hey, is receptor occupancy at 10 mg/kg for this one >= 30%? CC(N(C)C)C1(c2ccc3ccccc3c2)CCCCC1 (single isomer, unassigned) [56 E1]
Result block: criterion met

====

Target: human dopamine transporter (Homo sapiens (Human), UniProt Q01959)
Sequence (Q01959 whole entry): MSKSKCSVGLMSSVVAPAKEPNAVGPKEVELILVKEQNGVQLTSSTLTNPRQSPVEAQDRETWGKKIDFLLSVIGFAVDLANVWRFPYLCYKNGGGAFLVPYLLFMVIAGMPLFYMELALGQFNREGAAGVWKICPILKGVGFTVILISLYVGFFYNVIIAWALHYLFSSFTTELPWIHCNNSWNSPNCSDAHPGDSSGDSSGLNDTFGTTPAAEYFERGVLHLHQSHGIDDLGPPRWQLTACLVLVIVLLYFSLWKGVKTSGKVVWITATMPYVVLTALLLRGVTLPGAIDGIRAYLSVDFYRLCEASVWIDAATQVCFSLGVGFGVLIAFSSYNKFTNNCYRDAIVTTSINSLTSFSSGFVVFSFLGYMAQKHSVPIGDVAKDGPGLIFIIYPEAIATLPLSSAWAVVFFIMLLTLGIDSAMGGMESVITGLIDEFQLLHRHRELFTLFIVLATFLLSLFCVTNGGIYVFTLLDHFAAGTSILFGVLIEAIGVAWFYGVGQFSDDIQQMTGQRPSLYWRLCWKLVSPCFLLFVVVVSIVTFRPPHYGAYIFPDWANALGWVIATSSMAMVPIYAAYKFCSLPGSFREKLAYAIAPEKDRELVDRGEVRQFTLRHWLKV
Assay: Dopamine functional uptake assay, recombinant human transporter in CHO-K1 or HEK293 cells
Details: read-out: hDAT IC50
pIC50: −log10 of the molar value. Structures can show the parent of a compound that is named as a salt.
Please note: Condition met applies when pIC50 is 6 or greater, and Condition not met applies otherwise.

Query block: hey, is pIC50 for this one >= 6? COc1ccc([C@@]2(CN(C)C)CCCC[C@H]2O)cc1 (single isomer, unassigned) [156 E2]
Result block: Condition not met

Query block: hey, is pIC50 for this one >= 6? CNCC1(c2ccc(Cl)c(Cl)c2)CCC(C)(O)CC1 (stereo not shown)
Result block: Condition met

Query block: hey, is pIC50 for this one >= 6? CN(C)C[C@@]1(c2ccc(Cl)c(F)c2)CCCC[C@H]1O (single isomer, unassigned) [157 E1]
Result block: Condition met

Query block: hey, is pIC50 for this one >= 6? CCNC[C@@]1(c2ccc(Cl)c(Cl)c2)CCCC[C@H]1C (racemic)
Result block: Condition met

Query block: hey, is pIC50 for this one >= 6? CN(C)C[C@]1(c2ccc(Cl)c(Cl)c2)CCCC[C@H]1O (relative stereo) [153 E2]
Result block: Condition met

Query block: hey, is pIC50 for this one >= 6? CN(C)C[C@@]1(c2ccc(C(F)(F)F)cc2)CCCC[C@H]1O (single isomer, unassigned) [159 E1]
Result block: Condition not met

Query block: hey, is pIC50 for this one >= 6? CNC[C@]1(c2ccc(Cl)c(Cl)c2)CC[C@H](O)CC1
Result block: Condition met

Query block: hey, is pIC50 for this one >= 6? NC[C@]1(c2ccc(Cl)c(Cl)c2)CCC[C@H](O)C1 (single isomer, unassigned) [184 E1]
Result block: Condition met

Query block: hey, is pIC50 for this one >= 6? CN(C)C[C@]1(c2ccc(C(F)(F)F)cc2)CCCC[C@H]1O (single isomer, unassigned) [160 E1]
Result block: Condition not met

Query block: hey, is pIC50 for this one >= 6? CNC[C@]1(c2ccc(Cl)cc2)CCCC[C@H]1O (single isomer, unassigned) [136 E1]
Result block: Condition not met

Query block: hey, is pIC50 for this one >= 6? C[C@@H]1CCCC[C@@]1(CN(C)C)c1ccc(Cl)c(Cl)c1 (racemic) [Compound 175, hydrochloride]
Result block: Condition met

Query block: hey, is pIC50 for this one >= 6? CNC[C@]1(c2ccc(OC)cc2)CCCC[C@H]1O (single isomer, unassigned) [140 E2]
Result block: Condition not met

Query block: hey, is pIC50 for this one >= 6? CN(C)C[C@]1(c2ccc(Cl)c(Cl)c2)CCC[C@H](O)C1 (single isomer, unassigned) [190 E1]
Result block: Condition met
